# experimental system: human recombinant P2X7 receptor (Homo sapiens)
# Sequence (Q99572 1-595): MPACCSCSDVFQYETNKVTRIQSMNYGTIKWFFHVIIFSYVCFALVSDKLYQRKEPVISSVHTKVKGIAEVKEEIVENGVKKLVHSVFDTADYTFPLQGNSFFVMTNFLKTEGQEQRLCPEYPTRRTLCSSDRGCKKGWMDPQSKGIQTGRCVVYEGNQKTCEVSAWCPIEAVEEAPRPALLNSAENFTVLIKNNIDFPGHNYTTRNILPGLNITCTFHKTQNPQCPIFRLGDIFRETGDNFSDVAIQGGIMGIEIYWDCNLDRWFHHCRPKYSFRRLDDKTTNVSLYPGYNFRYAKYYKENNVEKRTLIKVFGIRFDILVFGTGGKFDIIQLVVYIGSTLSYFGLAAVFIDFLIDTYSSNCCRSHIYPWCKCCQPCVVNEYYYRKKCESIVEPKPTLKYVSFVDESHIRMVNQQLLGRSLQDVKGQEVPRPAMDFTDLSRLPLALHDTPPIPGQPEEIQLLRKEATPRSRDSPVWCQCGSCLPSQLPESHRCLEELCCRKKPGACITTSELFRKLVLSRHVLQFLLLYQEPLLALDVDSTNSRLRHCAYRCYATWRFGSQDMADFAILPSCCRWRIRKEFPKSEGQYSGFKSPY
# experiment notes: YO-PRO assay (YO-PRO-1 uptake) in HEK cells stably expressing P2X7
# experimental parameters: HEK-293 cells expressing human recombinant P2X7 receptor; ATP 250 μM, 90 minutes; YO-PRO-1 fluorescence (FLIPR tetra); read-out: IC50 (antagonistic activity with respect to the P2X7 receptor)
assay metric: IC50 (nM)

>  <compound>
COc1nccc(N(C)c2ccc(Cl)c(C(=O)NCC3(O)CCCCC3)c2)n1 [Example 13]

>  <assay metric>
IC50

>  <measured result>
200

$$$$
>  <compound>
CN(c1ccc(Cl)c(C(=O)NCC2(O)CCCCC2)c1)c1ccc(F)cc1F [Example 7]

>  <assay metric>
IC50

>  <measured result>
876

$$$$
>  <compound>
O=C(NCC1(O)CCCCC1)c1cc(C(F)c2cc[nH]c(=O)n2)ccc1Cl (racemic) [Example 152]

>  <assay metric>
IC50

>  <measured result>
25

$$$$
>  <compound>
CN(c1ccc(Cl)c(C(=O)NCC2(O)CCCCCCC2)c1)c1ccnc(=O)[nH]1 [Example 48]

>  <assay metric>
IC50

>  <measured result>
15

$$$$
>  <compound>
CN(C)c1cncc(N(C)c2ccc(Cl)c(C(=O)NCC3(O)CCCCC3)c2)n1 [Example 84]

>  <assay metric>
IC50

>  <measured result>
65

$$$$
>  <compound>
O=C(c1ccc(Cl)c(C(=O)NCC2(O)CCCCC2)c1)c1cc[nH]c(=O)n1 [Example 150]

>  <assay metric>
IC50

>  <measured result>
77

$$$$
>  <compound>
COc1nccc([S+]([O-])c2ccc(Cl)c(C(=O)NCC3(O)CCCCC3)c2)n1 (racemic) [Example 140]

>  <assay metric>
IC50

>  <measured result>
914

$$$$
>  <compound>
Cn1nccc1Nc1ccc(Cl)c(C(=O)NCC2(O)CCCCC2)c1 [Example 100]

>  <assay metric>
IC50

>  <measured result>
217

$$$$
>  <compound>
O=C(NCC1(O)CCCCC1)c1cc(Oc2ccccn2)ccc1Cl [Example 105]

>  <assay metric>
IC50

>  <measured result>
47

$$$$
>  <compound>
CN(c1ccccc1)c1ccc(Cl)c(C(=O)NCC2(O)CCCCC2)c1 [Example 2]

>  <assay metric>
IC50

>  <measured result>
315

$$$$

[a] COc1cnc(N(C)c2ccc(Cl)c(C(=O)NCC3(O)CCCCC3)c2)cn1 [Example 88]
[b] COc1nccc(Oc2ccc(Cl)c(C(=O)NCC3(O)CCCCC3)c2)n1 [Example 120]
[c] CN(c1ccc(Cl)c(C(=O)NCC2(C(N)=O)CCCCC2)c1)c1ccnc(Cl)n1 [Example 53]
[d] O=C(NCC1(O)CCC(F)(F)CC1)c1cc(Sc2cc[nH]c(=O)n2)ccc1Cl [Example 138]
Q: Given 4 compounds, produce a descending ranking by IC50. // ordering of labels required in reply
A: c, a, b, d
(c: 576 nM, a: 302 nM, b: 111 nM, d: 10 nM)

[1] CN(c1ccc(Cl)c(C(=O)NCC2(O)CCCCC2)c1)c1ncccn1 [Example 70]
[2] O=C(NCC1(O)CCCCC1)c1cc(N(CCOc2ccccc2)c2ccnc(Cl)n2)ccc1Cl [Example 38]
Q: For the pair 1 and 2 , which member has the lower IC50 number? Selection: enter the item's label.
A: 1
(1: 373 nM, 2: 764 nM)

[a] COc1ccnc(N(C)c2ccc(Cl)c(C(=O)NCC3(O)CCCCC3)c2)n1 [Example 74]
[b] O=C(NCC1(O)CCCCC1)c1cc(Nc2ccnc(Cl)n2)ccc1Cl [Example 10]
Q: Problem: Given the entries a and b , determine which has the lower reported IC50. # respond with the chosen item's label
A: a

###

# experimental system: human recombinant P2X7 receptor (Homo sapiens)
# experiment notes: YO-PRO assay (YO-PRO-1 uptake) in HEK cells stably expressing P2X7
# experimental parameters: HEK-293 cells expressing human recombinant P2X7 receptor; ATP 250 μM, 90 minutes; YO-PRO-1 fluorescence (FLIPR tetra); read-out: IC50 (antagonistic activity with respect to the P2X7 receptor)
assay metric: IC50 (nM)

>  <compound smiles>
O=C(NCC1(O)CCCCC1)c1cc(Cn2ccc(=O)[nH]c2=O)ccc1Cl

>  <IC50 / nM>
1390

$$$$

[A] O=C(NCC1(O)CCCCC1)c1cc(Nc2ccccc2)ccc1Cl
[B] O=C(NCC1(O)CCCCC1)c1cc(Oc2ccncc2)ccc1Cl
Q: Name the one with the greater IC50 value, either A or B as given. When you have decided, please share the label of that item.
A: B
(B: 1720 nM, A: 111 nM)

[A] CN(c1ccc(Cl)c(C(=O)NCC2(O)CCCCC2)c1)c1ccnc(Cl)n1
[B] O=C(NCC1(O)CCCCC1)c1cc(Oc2ccc(=O)[nH]n2)ccc1Cl
Q: From the recorded data, which exceeds the other in IC50: A or B ? Mark your selection by writing its label.
A: A

[I] CC(C)N(c1ccc(Cl)c(C(=O)NCC2(O)CCCCC2)c1)c1ccnc(Cl)n1
[II] O=C(NCC1(O)CCCCC1)c1cc(Oc2cccnn2)ccc1Cl
Q: Could you kindly indicate whether I or II has the higher IC50 value? Response format: the label of the selected entry.
A: I

[P] COc1nc(Cl)cc(N(C)c2ccc(Cl)c(C(=O)NCC3(O)CCCCC3)c2)n1
[Q] CNc1nccc(Oc2ccc(Cl)c(C(=O)NCC3(O)CCCCC3)c2)n1
Q: Higher IC50: P or Q ? Write the label of whichever entry you select.
A: P

###

# experimental system: human recombinant P2X7 receptor (Homo sapiens)
# experiment notes: YO-PRO assay (YO-PRO-1 uptake) in HEK cells stably expressing P2X7
# experimental parameters: HEK-293 cells expressing human recombinant P2X7 receptor; ATP 250 μM, 90 minutes; YO-PRO-1 fluorescence (FLIPR tetra); read-out: IC50 (antagonistic activity with respect to the P2X7 receptor)
assay metric: IC50 (µM)

Solved entries:
>  <compound>
O=C(NCC1(O)CCCCC1)c1cc(Nc2ccncn2)ccc1Cl

>  <assay metric>
IC50

>  <endpoint unit>
µM

>  <measured result>
0.459

$$$$
>  <compound>
O=C(NCC1(O)CCCCC1)c1cc(N(CC2CCCC2)c2cc[nH]c(=O)n2)ccc1Cl

>  <assay metric>
IC50

>  <endpoint unit>
µM

>  <measured result>
0.185

$$$$
>  <compound>
COCCN(c1cncnc1)c1ccc(Cl)c(C(=O)NCC2(O)CCCCC2)c1

>  <assay metric>
IC50

>  <endpoint unit>
µM

>  <measured result>
1.46

$$$$

[P] COc1cncc(N(C)c2ccc(Cl)c(C(=O)NCC3(O)CCCCC3)c2)n1
[Q] CN(c1ccc(Cl)c(C(=O)NCC2(O)CCCCC2)c1)c1ccn(C)c(=O)n1
Q: Smaller IC50 value, P vs Q ? Reply with the label of the item you choose.
A: P
(P: 0.076 µM, Q: 0.42 µM)

[a] CN(c1ccc(Cl)c(C(=O)NCC2(O)CCCCC2)c1)c1cncc(=O)[nH]1
[b] CCCN(c1ccc(Cl)c(C(=O)NCC2(O)CCCCC2)c1)c1ccnc(Cl)n1
[c] COCCN(c1ccc(Cl)c(C(=O)NCC2(O)CCCCC2)c1)c1ncccn1
[d] O=C(NCC1(O)CCC(F)(F)CC1)c1cc(Oc2cc[nH]c(=O)n2)ccc1Cl
Q: Let's sort these by IC50, smallest first. Go ahead? // format: requested-order list of labels
A: d, a, b, c
(d: 0.014 µM, a: 0.177 µM, b: 0.267 µM, c: 2 µM)

[1] COc1cc(N(C)c2ccc(Cl)c(C(=O)NCC3(O)CCCCC3)c2)ncn1
[2] CN(c1ccc(Cl)c(C(=O)NCC2(O)CCCCC2)c1)c1cc(S(C)(=O)=O)ncn1
[3] O=C(NCC1(O)CCCCC1)c1cc(Nc2ccccn2)ccc1Cl
[4] CC(O)(c1ccc(Cl)c(C(=O)NCC2(O)CCCCC2)c1)c1cc[nH]c(=O)n1 (racemic) [Example 156]
Q: Hey, quick one: sort these by IC50, largest value first please. Form entry: labels listed in requested order.
A: 1, 2, 3, 4

[A] CSc1ccnc(N(C)c2ccc(Cl)c(C(=O)NCC3(O)CCCCC3)c2)n1
[B] Cn1cccc(Nc2ccc(Cl)c(C(=O)NCC3(O)CCCCC3)c2)c1=O
[C] CSc1nccc(Nc2ccc(Cl)c(C(=O)N[C@H](CO)C3CCCCC3)c2)n1
Q: Please produce an ascending ranking of these compounds based on IC50. In your reply, arrange the labels in the requested order.
A: B, A, C
(B: 0.148 µM, A: 0.322 µM, C: 1.03 µM)

[A] COc1nccc(C(C)(O)c2ccc(Cl)c(C(=O)NCC3(O)CCCCC3)c2)n1 (racemic)
[B] O=C(NCC1(O)CCCCC1)c1cc(Oc2cnccn2)ccc1Cl
Q: I would appreciate it if you could say which entry, A or B , has the lower IC50 value. Your answer should be the label of the entry you select.
A: B
(B: 0.093 µM, A: 0.346 µM)

[A] O=C(NCC1(O)CCCCC1)c1cc(Oc2cncc(Cl)n2)ccc1Cl
[B] CN(c1ccc(Cl)c(C(=O)NCC2(O)CCCCC2)c1)c1cc(=O)[nH]cn1
[C] O=C(NCC1(O)CCCCC1)c1cc(Nc2cnccn2)ccc1Cl
[D] COc1nccc(S(=O)(=O)c2ccc(Cl)c(C(=O)NCC3(O)CCCCC3)c2)n1
Q: Sort the 4 compounds by IC50; largest first, smallest last. Returns: the labels arranged in the requested order.
A: D, C, B, A

[I] COc1nccc(N(CC(C)C)c2ccc(Cl)c(C(=O)NCC3(O)CCCCC3)c2)n1
[II] CN(c1ccc(Cl)c(C(=O)N[C@H](CO)C2CCCCC2)c1)c1ccnc(Cl)n1
[III] COc1nccc(Nc2ccc(Cl)c(C(=O)NCC3(O)CCCCC3)c2)n1
Q: Let's sort these by IC50, smallest first. Go ahead? Give me the labels in the order the question wants.
A: II, I, III

[P] CN(C)c1cncc(Oc2ccc(Cl)c(C(=O)NCC3(O)CCCCC3)c2)n1
[Q] COCCn1c(Nc2ccc(Cl)c(C(=O)NCC3(O)CCCCC3)c2)cccc1=O
Q: Field: lower IC50 | Options: P / Q Give the label under which the chosen entry appears.
A: Q
(Q: 0.317 µM, P: 0.504 µM)
